Here the recorded Equilibrium force F^eq is given for each entry.
- protocol.text: Constant-force (CF) single-molecule optical tweezers folding assay of guanine-aptamer RNAs in guanine buffer
- Type: physicochemical
- condition.label: transition C′B (L2-L3 folding); 3 mM Mg^2+, 200 nM G (rates at 8.5 pN)
Write down the numeric answer in pN and omit the unit.

molecule	measured
wt: 69-nucleotide full-length wild-type guanine sensing aptamer RNA sequence from xpt-pbuX operon in B. subtilis (SEQ ID NO: 1) (nucleic acid, RNA, backbone and methylation of C not given here) CACUCAUAUAAUCGCGUGGAUAUGGCACGCAAGUUUCUACCGGGCACCGUAAAUGUCCGACUAUGGGUG	8.7
m8: m8 mutant guanine sensing aptamer RNA (SEQ ID NO: 9); A19G and U77C in the P1 hairpin (nucleic acid, RNA, backbone and methylation of C not given here, A19G and U77C in the P1 hairpin) CACUCGUAUAAUCGCGUGGAUAUGGCACGCAAGUUUCUACCGGGCACCGUAAAUGUCCGACUACGGGUG	8.4
m4: m4 mutant guanine sensing aptamer RNA (SEQ ID NO: 5); A59G/U67C in the P3 hairpin (nucleic acid, RNA, backbone and methylation of C not given here, A59G/U67C in the P3 hairpin) CACUCAUAUAAUCGCGUGGAUAUGGCACGCAAGUUUCUACCGGGCGCCGUAAACGUCCGACUAUGGGUG	7.6

Would you kindly look at the next entry?
Task: // returns reported Equilibrium force F^eq for input m6: m6 mutant guanine sensing aptamer RNA (SEQ ID NO: 7); U67A, shorter P3 hairpin and larger L3 loop (nucleic acid, RNA, backbone and methylation of C not given here, U67A, shorter P3 hairpin and larger L3 loop) CACUCAUAUAAUCGCGUGGAUAUGGCACGCAAGUUUCUACCGGGCACCGUAAAAGUCCGACUAUGGGUG
Result: 7.2
